# target or test system: PD-L1
# Sequence (Q9NZQ7 whole entry): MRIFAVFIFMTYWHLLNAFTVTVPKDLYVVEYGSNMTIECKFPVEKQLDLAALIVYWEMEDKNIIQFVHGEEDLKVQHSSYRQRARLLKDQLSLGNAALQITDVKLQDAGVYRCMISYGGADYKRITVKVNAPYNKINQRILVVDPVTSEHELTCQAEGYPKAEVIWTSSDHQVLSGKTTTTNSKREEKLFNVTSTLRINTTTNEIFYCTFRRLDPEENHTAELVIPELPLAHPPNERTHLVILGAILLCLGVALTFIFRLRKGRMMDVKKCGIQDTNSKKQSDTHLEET
# assay text: ELISA, purified VHH, cross-reaction
quantity: ELISA signal
Enter the number alone.

Recorded ELISA signal, per entry:
[
  {
    "binder": "RWC3 (VHH, Camel VHH; tag not described; also called camel antibody RWC3) VHH: QVQLVESGGGLVQPGGSLSVSCAASGFTFSVYWFYWVRQAPRQGLEWVSTIASNGSTYYSDSVKGRFTISRDNAKNTVYLQMNSLKPEDTAVYYCVSDPDYYSDYERAYKFWAQGTQVTVSS",
    "ELISA signal": 0.0454
  },
  {
    "binder": "RWC4 (VHH, Camel VHH; tag not described; also called camel antibody RWC4) VHH: EVQLVESGGGSVQAGGSLRLSCVASEDSTSAMCMGWFRQAPGKEREGVACINPTGEVTWYGDSVKGRFTISRDTVKKIVYLQMNSLKPEDTAMYYCAARVTYGGDWSTDTDYEYWGQGTQVTVSS",
    "ELISA signal": 0.043
  },
  {
    "binder": "RWB2 (VHH, Camel VHH; tag not described; also called camel antibody RWB2) VHH: AVQLVDSGGGSVQAGGSLRLSCVVSGYAFSTYDMAWFRQAPGEKCEWVSTVTNNGRTFYADSVKGRFIISRDNAKNILYLQMNSLKPEDTAVYSCAAAGVRWRCASGGNEGTQVTVSS",
    "ELISA signal": 0.0522
  },
  {
    "binder": "RWG8 (VHH, Camel VHH; tag not described; also called camel antibody RWG8) VHH: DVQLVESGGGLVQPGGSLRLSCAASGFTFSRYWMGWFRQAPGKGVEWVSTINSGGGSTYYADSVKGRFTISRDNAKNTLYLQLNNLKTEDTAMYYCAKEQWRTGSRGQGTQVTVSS",
    "ELISA signal": 0.0715
  }
]

The record that follows has no ELISA signal shown yet.
Exercise: Please report the recorded ELISA signal for RWB12 (VHH, Camel VHH; tag not described; also called camel antibody RWB12) VHH: QVQLVESGGGSVQVGGSLRLSCAASGFTYNSYSVGWFRQAPGKEREGVAAINSGGSSTYYAASVKGRFTISRDNAKNTVYLQMNSLKPEDTAMYYCAARSPSPLTFQTRTLREDSYNYWGQGTQVTVSS .
Solution: 0.0454
